The measured values listed here are drawn from paper PMC5601360.

target: human KOP receptor (Homo sapiens); construct: expressed in transfected cells; host or cells: CHO-hKOP cells (gift of Dr. Lawrence Toll, SRI International); assay: Competition binding assay, CHO-hKOP cell membranes, [3H]U69,593; details: Ki ratio DOP/KOP
QUANTITY: selectivity DOP/KOP
Please state the value as a number alone, without comment.

Q) Could you tell me which selectivity DOP/KOP is on file for Cl.Oc1cccc(CCN(CCc2cccc(O)c2)CC2CCC2)c1 ?
A) 8789

Q) Could you tell me which selectivity DOP/KOP is on file for Cl.Oc1ccc(CCN(CCc2cccc(O)c2F)CC2CCC2)cc1 ?
A) 389

Q) Could you tell me which selectivity DOP/KOP is on file for Cl.Oc1cccc(CCN(CCc2cccc(O)c2)CC2CCCC2)c1 ?
A) 8952

Q) Could you tell me which selectivity DOP/KOP is on file for Cl.Oc1cccc(CCN(CCc2cccc(O)c2)CC2CC2)c1 ?
A) 617

Q) Could you tell me which selectivity DOP/KOP is on file for c1ccc(CCN(CCc2ccccc2)CC2CCC2)cc1 ?
A) 28

Q) Could you tell me which selectivity DOP/KOP is on file for Cl.Oc1cccc(CCN(CCc2ccccc2)CC2CCCCC2)c1 ?
A) 35066

Q) Could you tell me which selectivity DOP/KOP is on file for CC(C)CCN(CCc1ccccc1)CCc1cccc(O)c1.Cl ?
A) 1020

Q) Could you tell me which selectivity DOP/KOP is on file for C=CCN(CCc1ccc(O)cc1)CCc1cccc(O)c1 ?
A) 25

Q) Could you tell me which selectivity DOP/KOP is on file for Cl.Oc1cccc(CCN(CCc2ccccc2)CC2CCCC2)c1 ?
A) 133471

* * *

target: human KOP receptor (Homo sapiens, UniProt P41145); test: [35S]GTPγS binding assay using CHO-hKOP cell membranes; conditions: CHO-hKOP membranes; mean ± SEM
QUANTITY: pEC50
In textbook form, pEC50 equals minus log to base ten of the concentration in mol/L.

Q) Could you tell me which pEC50 is on file for CC(C)CCN(CCc1cccc(O)c1)CCc1cccc(O)c1.Cl [Compound 13] ?
A) 7.78

Q) Could you tell me which pEC50 is on file for Cl.Oc1cccc(CCN(CCc2ccccc2)CC2CCC2)c1F [Compound 18] ?
A) 8.16

Q) Could you tell me which pEC50 is on file for Cl.Oc1cccc(CCN(CCc2cccc(O)c2)CC2CCCC2)c1 [Compound 12] ?
A) 7.86

* * *

For each record, write down the corresponding Ki.
Report as a plain number; the unit nM is understood.

Q) Provide value of Ki for this record tested with human MOP receptor (Homo sapiens): CC(C)CCN(CCc1cccc(O)c1)CCc1cccc(O)c1.Cl
A) 211

Q) Provide value of Ki for this record tested with human MOP receptor (Homo sapiens): Cl.Oc1ccc(CCN(CCc2cccc(O)c2)CC2CCC2)cc1
A) 16.1

Q) Provide value of Ki for this record tested with human MOP receptor (Homo sapiens): Cl.Oc1cccc(CCN(CCc2cccc(O)c2)CC2CC2)c1
A) 631
